Target System: PRKD3 (human)
Procedure Details: radiometric filter-binding kinase assay, Kinase HotSpot
Test Settings: compound 0.5 µM; ATP 10 µM
Metric: residual activity (%)

> print(dat)
                                    molecule  readout.value
 1  Cc1ccc(NC(=O)c2ccc(CN3CCN(C)CC3)cc2)cc1Nc1nc(-c2cccnc2)cs1           92.7
 2    Clc1ccc(Nc2nnc(Cc3ccncc3)c3ccccc23)cc1           94.7
 3  O=C1Cc2c([nH]c3ccc([N+](=O)[O-])cc23)-c2ccccc2N1           88.2
 4  O=C(NC(NC(=S)Nc1ccc(F)c([N+](=O)[O-])c1)C(Cl)(Cl)Cl)C(c1ccccc1)c1ccccc1 (stereo unspecified)           98.5
 5           CCN1/C(=C/C(C)=O)Sc2ccc(OC)cc21           62.5
 6  CC(C)(C)c1nc2c3ccc(F)cc3c3c(=O)[nH]ccc3c2[nH]1           10.8
 7  Nc1nc(Nc2ccc(S(N)(=O)=O)cc2)nn1C(=O)c1c(F)cccc1F           55.6
 8  C#Cc1cccc(Nc2ncnc3cc(OCCOC)c(OCCOC)cc23)c1           86.5
 9  CC(C)[C@H](CO)Nc1nc(Nc2cccc(Cl)c2)c2ncn(C(C)C)c2n1           95.5
10      COc1ccc(-c2cnc3c(-c4ccsc4)cnn3c2)cc1            100
11  Nc1nc(Nc2ccc(S(N)(=O)=O)cc2)nn1C(=S)Nc1c(F)cccc1F           7.37
12      O=C(Nc1ccc(Cl)cc1)c1ccccc1NCc1ccncc1           92.1
13   CC(C)n1cnc2c(Nc3cccc(Cl)c3)nc(NCCO)nc21           88.4
14  Nc1n[nH]c2nnc(-c3c(-c4ccccc4)nn4ccccc34)cc12           58.9
15  CCCNC(=O)Nc1ccc(Oc2ncnc3cc(OC)c(OC)cc23)cc1Cl           93.4
16  CS(=O)c1ccc(-c2nc(-c3ccc(F)cc3)c(-c3ccncc3)[nH]2)cc1 (stereo unspecified)           84.1
17  Oc1ccc(-c2nc(-c3ccc(F)cc3)c(-c3ccncc3)[nH]2)cc1           69.8
18  O=c1cc(-c2cccc3c2Sc2ccccc2S3)oc(N2CCOCC2)c1           83.4
19  NC(=O)c1ccc(N(C(N)=O)c2c(F)cccc2F)nc1-c1ccc(F)cc1F           85.1
20   O=C1Nc2ccccc2/C1=C\c1c(Cl)[nH]c2ccccc12           87.7
21  CSc1nc(-c2ccc(F)cc2)c(-c2ccnc(NC(C)c3ccccc3)c2)[nH]1 (stereo unspecified)             82
22     O=c1cc(N2CCNCC2)oc2c(-c3ccccc3)cccc12           88.6
23  COc1cc2nccc(Oc3ccc(NC(=S)NC(=O)c4ccccc4C)cc3)c2cc1OC           97.8
24               Cc1cc2ncc(-c3ccccc3)nc2cc1C           92.2
25  O=C1Nc2cc(Br)ccc2/C1=C1/Nc2ccccc2/C1=N\O           87.8
26  COc1cc2ncnc(Nc3ccc(F)c(Cl)c3)c2cc1OCCCN1CCOCC1           76.3
